- MEASUREMENT_CONDITIONS: in DMF, 317.9 K
TEST_READOUT: solubility (mole fraction)

{"columns": ["SMILES_DATA", "TEST_READOUT", "RESULT_NUMBER"],
 "data": [
  ["COC(=O)c1ccc2cc(C(=O)OC)ccc2c1", "solubility (mole fraction)", 0.00521]
]}

====

- MEASUREMENT_CONDITIONS: in DMF, 377.86 K

{"columns": ["SMILES_DATA", "solubility (mole fraction)"],
 "data": [
  ["COC(=O)c1ccc2cc(C(=O)OC)ccc2c1", 0.0574]
]}

====

- MEASUREMENT_CONDITIONS: in NMP, 360.09 K
TEST_READOUT: solubility (mole fraction)

{"columns": ["SMILES_DATA", "RESULT_NUMBER"],
 "data": [
  ["COC(=O)c1ccc2cc(C(=O)OC)ccc2c1", 0.0125]
]}

====

- MEASUREMENT_CONDITIONS: in NMP, 317.1 K

{"columns": ["SMILES_DATA", "solubility (mole fraction)"],
 "data": [
  ["COC(=O)c1ccc2cc(C(=O)OC)ccc2c1", 0.0074]
]}
